experiment-summary: Tmax in Sprague-Dawley rat at 30 mg/kg, ip measured for 24 hrs by LC-MS/MS analysis
Type: ADME, organism-based
setup-conditions: in vivo
reported-endpoint: Tmax (h)
One number for each entry, in h.

Consider the compound COc1nc(OCc2cccc(-c3ccccc3)c2C)ccc1CNCCNC(=O)CCCCCCCCNC(=O)COc1ccc(C2CCC(=O)NC2=O)cc1 (stereo unspecified) and give its measured Tmax.
2

====

target-or-system: Programmed cell death 1 ligand 1 (Mus musculus)
Sequence (Q9EP73 whole entry): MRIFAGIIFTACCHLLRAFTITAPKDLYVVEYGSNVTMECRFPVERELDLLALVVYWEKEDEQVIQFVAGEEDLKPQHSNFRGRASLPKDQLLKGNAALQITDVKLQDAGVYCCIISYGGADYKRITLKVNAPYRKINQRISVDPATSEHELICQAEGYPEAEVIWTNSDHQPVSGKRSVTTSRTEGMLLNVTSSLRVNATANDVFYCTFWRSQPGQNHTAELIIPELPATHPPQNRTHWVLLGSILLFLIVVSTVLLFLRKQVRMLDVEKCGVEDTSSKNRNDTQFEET
reported-endpoint: Kd (µM)
Numbers only, in µM.

Consider the molecule COc1nc(OCc2cccc(-c3ccccc3)c2C)ccc1CNCCNC(=O)CCCCCCCCNC(=O)COc1ccc(C2CCC(=O)NC2=O)cc1 (stereo unspecified) and give its measured Kd.
59.2

Sourced from ChEMBL document CHEMBL5500406
